- measurement_description: Antagonist activity at AR in human LNCAP cells assessed as reduction in DHT-induced cell growth treated for every 2 days for 4 days by hemocytometry
reported_metric: IC50 (µM)

O=C1CC(c2ccccc2O)Oc2ccccc21 (stereo not given) [2-(2-Hydroxy-phenyl)-chroman-4-one] ... 6.4

(P) O=C(/C=C/c1ccccc1O)c1cc(Cl)ccc1O
(Q) CC(C)Oc1ccccc1/C=C/C(=O)c1cc(Br)ccc1O
stdin: Which is greater in IC50, the first item P or the second item Q ? Your answer should be the label attached to the chosen record.
stdout: Q
